Target: human receptor tyrosine kinase like orphan receptor 1 (ROR1) (human, UniProt Q01973 30-937)
Sequence (Q01973 30-937): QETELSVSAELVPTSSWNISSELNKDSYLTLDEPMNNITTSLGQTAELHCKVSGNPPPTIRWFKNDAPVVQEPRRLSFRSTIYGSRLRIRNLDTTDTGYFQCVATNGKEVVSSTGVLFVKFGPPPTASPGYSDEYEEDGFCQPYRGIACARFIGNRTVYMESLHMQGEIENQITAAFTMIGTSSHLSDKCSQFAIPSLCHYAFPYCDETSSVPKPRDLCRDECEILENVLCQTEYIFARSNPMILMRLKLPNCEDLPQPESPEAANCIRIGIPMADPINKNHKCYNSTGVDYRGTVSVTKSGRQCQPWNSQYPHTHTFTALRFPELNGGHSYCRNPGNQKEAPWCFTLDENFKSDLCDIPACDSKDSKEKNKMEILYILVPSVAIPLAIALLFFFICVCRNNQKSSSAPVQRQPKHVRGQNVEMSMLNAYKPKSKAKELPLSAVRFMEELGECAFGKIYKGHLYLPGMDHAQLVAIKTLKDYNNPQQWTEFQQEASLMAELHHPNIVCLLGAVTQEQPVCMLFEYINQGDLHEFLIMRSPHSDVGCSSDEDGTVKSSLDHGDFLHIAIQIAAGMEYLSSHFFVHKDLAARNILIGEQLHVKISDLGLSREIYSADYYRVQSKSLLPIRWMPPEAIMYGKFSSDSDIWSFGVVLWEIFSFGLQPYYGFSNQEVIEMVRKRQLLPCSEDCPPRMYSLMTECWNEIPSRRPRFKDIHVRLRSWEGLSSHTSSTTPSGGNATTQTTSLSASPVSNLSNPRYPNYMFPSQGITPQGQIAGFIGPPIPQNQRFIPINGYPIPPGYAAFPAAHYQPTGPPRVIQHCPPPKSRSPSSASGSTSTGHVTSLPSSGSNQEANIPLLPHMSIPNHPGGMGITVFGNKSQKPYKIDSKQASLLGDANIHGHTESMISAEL
Test: cell-based or functional assay
Collected IC50, cell viability (CellTiter-Glo, 72 h), MDA-MB-468 cells values appear next to each entry.

Example cases with answers are listed next.
BINDER: ADC-F (antibody, human IgG1, kappa, V domains shown, SC-VC-PAB-DM1 bonded via lysine residues of the antibody (chain and positions not stated)) VH: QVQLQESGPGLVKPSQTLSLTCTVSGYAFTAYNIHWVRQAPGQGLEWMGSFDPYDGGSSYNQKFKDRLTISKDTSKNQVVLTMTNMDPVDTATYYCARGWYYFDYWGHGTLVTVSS VL: DIVMTQTPLSLPVTPGEPASISCRASKSISKYLAWYQQKPGQAPRLLIYSGSTLQSGIPPRFSGSGYGTDFTLTINNIESEDAAYYFCQQHDESPYTFGEGTKVEIKR
DATA VALUE: > 1000 nM
//
BINDER: ADC-C (antibody, human IgG1, kappa, V domains shown, MAL-VC-PAB-DM1 bonded via cysteine residues of the antibody (chain and positions not stated)) VH: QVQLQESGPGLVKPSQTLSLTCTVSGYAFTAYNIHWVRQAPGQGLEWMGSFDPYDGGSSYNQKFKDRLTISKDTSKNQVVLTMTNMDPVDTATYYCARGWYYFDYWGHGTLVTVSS VL: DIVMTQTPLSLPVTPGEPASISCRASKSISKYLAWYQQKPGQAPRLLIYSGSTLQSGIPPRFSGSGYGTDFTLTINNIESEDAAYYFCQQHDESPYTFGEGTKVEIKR
DATA VALUE: > 1000 nM
//
BINDER: ADC-B (antibody, human IgG1, kappa, V domains shown, SMCC-DM1 bonded via lysine residues of the antibody (chain and positions not stated); SMCC-DM1 bonded via lysine residues of the antibody (chain and positions not stated); DAR 3.0 to 3.20) VH: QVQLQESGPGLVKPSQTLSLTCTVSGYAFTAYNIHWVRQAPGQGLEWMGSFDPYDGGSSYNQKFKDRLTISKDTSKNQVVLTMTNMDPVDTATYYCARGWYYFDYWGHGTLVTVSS VL: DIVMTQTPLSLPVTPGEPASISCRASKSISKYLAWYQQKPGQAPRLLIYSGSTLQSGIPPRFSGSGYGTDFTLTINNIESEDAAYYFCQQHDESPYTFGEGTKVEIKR
DATA VALUE: 18.8 nM
//
BINDER: ADC-E (antibody, human IgG1, kappa, V domains shown, SC-VC-PAB-MMAE bonded via lysine residues of the antibody (chain and positions not stated)) VH: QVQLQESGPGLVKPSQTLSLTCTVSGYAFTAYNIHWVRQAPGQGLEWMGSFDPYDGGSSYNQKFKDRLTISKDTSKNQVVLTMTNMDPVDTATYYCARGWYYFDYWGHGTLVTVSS VL: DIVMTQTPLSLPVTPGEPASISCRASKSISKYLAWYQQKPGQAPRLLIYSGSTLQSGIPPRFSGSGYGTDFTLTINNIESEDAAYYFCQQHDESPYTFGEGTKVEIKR
DATA VALUE: 80.1 nM

Field request: IC50, cell viability (CellTiter-Glo, 72 h), MDA-MB-468 cells | item: ADC-A (antibody, human IgG1, kappa, V domains shown, MC-VC-PAB-MMAE bonded via cysteine residues of the antibody (chain and positions not stated); MC-VC-PAB-MMAE bonded via cysteine residues of the antibody (chain and positions not stated); DAR 3.89 to 5.09, Antibody-drug conjugate of Ab1; also called Ab1-MC-VC-PAB-MMAE) VH: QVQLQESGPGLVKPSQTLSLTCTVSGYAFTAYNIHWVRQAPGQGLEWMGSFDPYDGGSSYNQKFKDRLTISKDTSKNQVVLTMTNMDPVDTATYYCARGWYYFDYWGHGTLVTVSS VL: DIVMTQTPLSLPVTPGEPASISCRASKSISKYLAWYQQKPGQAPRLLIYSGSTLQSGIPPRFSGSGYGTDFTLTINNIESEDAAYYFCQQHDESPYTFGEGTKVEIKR
23.5 nM
